# ASSAY_SYSTEM: UniProtKB Q06187
# Sequence (Q06187 whole entry): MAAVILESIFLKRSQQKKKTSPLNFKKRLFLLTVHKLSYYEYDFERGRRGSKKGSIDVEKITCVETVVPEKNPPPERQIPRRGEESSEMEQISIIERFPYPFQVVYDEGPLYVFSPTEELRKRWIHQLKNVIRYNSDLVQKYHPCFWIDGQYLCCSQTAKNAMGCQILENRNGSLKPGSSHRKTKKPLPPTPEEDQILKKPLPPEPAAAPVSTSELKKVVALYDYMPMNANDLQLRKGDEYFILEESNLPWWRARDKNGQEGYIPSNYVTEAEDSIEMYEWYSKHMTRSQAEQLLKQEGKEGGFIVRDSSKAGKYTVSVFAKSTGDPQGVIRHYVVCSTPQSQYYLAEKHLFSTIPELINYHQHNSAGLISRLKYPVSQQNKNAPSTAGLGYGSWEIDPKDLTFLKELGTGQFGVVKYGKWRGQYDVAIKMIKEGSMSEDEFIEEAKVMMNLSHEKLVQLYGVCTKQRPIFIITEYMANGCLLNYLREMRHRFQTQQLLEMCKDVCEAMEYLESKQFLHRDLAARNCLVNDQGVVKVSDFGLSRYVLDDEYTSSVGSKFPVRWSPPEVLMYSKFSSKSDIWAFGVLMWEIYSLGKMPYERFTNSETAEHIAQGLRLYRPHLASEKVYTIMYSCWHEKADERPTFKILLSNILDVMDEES
# ASSAY_METHOD_TEXT: Recombinant Human Bruton's Tyrosine Kinase (Btk) Inhibition Assay (HTRF KinEASE-TK)
# Assay type: biochemical
# TEST_PARAMETERS: 20 ng/ml rhBtk, 77 μM ATP (KM), 1 μM TK-Biotin substrate, 90 min; read-out: hBTK IC50
pIC50: −log10 of the molar value.
PROPERTY_LABEL: pIC50

Consider the reported pIC50 for these molecules:
Cc1c(-c2ncnc3[nH]c(-c4ccc(C(=O)N5CCOCC5)cc4)cc23)cccc1N1CCc2cc(C3CC3)ccc2C1=O [Example K-15]: 6.89
Cc1c(-c2ncnc3[nH]c(-c4ccc(CN5CCC(C)(O)CC5)cc4)cc23)cccc1N1CCc2cc(C3CC3)ccc2C1=O [Example B-12]: 6.94
CN1CCC(Oc2ccc(-c3cc4c(-c5cccc(N6CCOc7cc(C8CC8)ccc7C6=O)c5CO)ncnc4[nH]3)cc2)CC1 [Example G-1]: 8.52
CCN(CC)C(=O)N1CC=C(c2cc3c(-c4cccc(N5CCOc6cc(C7CC7)cc(F)c6C5=O)c4CO)ccnc3[nH]2)CC1 [Example P-19]: 7.84
Cc1c(-c2ncnc3[nH]c(-c4ccc(C(=O)N5CCC(O)CC5)cc4)cc23)cccc1-n1ncc2cc(C3CC3)ccc2c1=O [Example K-20]: 7.36

(I) CN(C)C(=O)N1CC=C(c2cc3c(-c4cccc(N5CCOc6cc(C7CC7)ccc6C5=O)c4CO)ccnc3[nH]2)CC1 [Example P-5]
(II) O=C1c2c(F)cc(C3CC3)cc2OCCN1c1cccc(-c2ccnc3[nH]c(C4=CCN(C5COC5)CC4)cc23)c1CO [Example P-12]
Request: // max by pIC50 over [ I , II ] Indicate your choice by writing its label.
Result: I
